# System: Staphylococcus aureus
# Assay overview: Antibacterial activity against methicillin-resistant Staphylococcus aureus OM584 after 24 hrs by microdilution method
# Type: functional
# Condition set: OM584, 24 h
Each entry below carries its reported MIC.
Please reply with the bare figure in µg/mL and do not write the unit itself.

Item "Cc1ccc(CCC(=O)O[C@H]2[C@H](Oc3c(-c4ccc(O)c(O)c4)oc4cc(O)cc(O)c4c3=O)O[C@H](CO)[C@@H](O)[C@@H]2OC(=O)CCc2ccc(C)cc2)cc1" ; assay system Staphylococcus aureus; MIC reported as 2

The measured MIC that "CCOc1ccc(CCC(=O)O[C@H]2[C@H](Oc3c(-c4ccc(O)c(O)c4)oc4cc(O)cc(O)c4c3=O)O[C@H](CO)[C@@H](O)[C@@H]2OC(=O)CCc2ccc(OCC)cc2)cc1" showed for Staphylococcus aureus is 2

Measured MIC (Staphylococcus aureus), entry "O=C(CCc1ccc(F)cc1)OC[C@H]1O[C@@H](Oc2c(-c3ccc(O)c(O)c3)oc3cc(O)cc(O)c3c2=O)[C@H](OC(=O)CCc2ccc(F)cc2)[C@@H](O)[C@H]1O" : 0.13

I looked up "Cc1ccc(CCC(=O)Oc2cc(O)c3c(=O)c(OC(=O)CCc4ccc(C)cc4)c(-c4ccc(O)c(O)c4)oc3c2)cc1" and its MIC for Staphylococcus aureus was 32
